tested on: Klebsiella pneumoniae ATCC 13883
Give MIC for every item shown.
One number for each entry, in µM.

Please look at the items below and tell me MIC for each one, in order.
1. CC[C@H](C)[C@@H]1NC(=O)CNC(=O)[C@H](CCCN=C(N)N)NC(=O)[C@H](Cc2ccc(O)cc2)NC(=O)[C@@H]2CSSC[C@H](NC1=O)C(=O)N[C@@H](Cc1ccc(O)cc1)C(=O)N[C@@H](CCCN=C(N)N)C(=O)N[C@@H](C)C(=O)N[C@H](C(=O)N[C@@H](CCCN=C(N)N)C(=O)O)CSSC[C@H](NC(=O)[C@H](Cc1c[nH]c3ccccc13)NC(=O)[C@@H](N)CCCCN)C(=O)N[C@@H](Cc1ccccc1)C(=O)N[C@@H](CCCN=C(N)N)C(=O)N[C@@H](C(C)C)C(=O)N2 [KWCFRVCYRGICYRACR]
2. CC[C@H](C)[C@H](NC(=O)[C@H](CCCCN)NC(=O)[C@H](CCCCN)NC(=O)[C@@H](NC(=O)[C@H](CCCCN)NC(=O)[C@H](C)NC(=O)[C@H](C)NC(=O)[C@H](CC(C)C)NC(=O)[C@H](CCCN=C(N)N)NC(=O)[C@H](CCCCN)NC(=O)[C@H](CC(C)C)NC(=O)[C@@H](NC(=O)[C@@H](N)CCCCN)[C@@H](C)CC)[C@@H](C)CC)C(=O)N[C@@H](CC(C)C)C(N)=O [KILKRLAAKIKKIL]

1: 0.115; 2: 8

Please look at the items below and tell me MIC for each one, in order.
1. CC[C@H](C)[C@H](NC(=O)[C@H](CCCN=C(N)N)NC(=O)[C@H](CCCN=C(N)N)NC(=O)[C@H](CC(C)C)NC(=O)[C@H](Cc1c[nH]c2ccccc12)NC(=O)[C@H](Cc1c[nH]c2ccccc12)NC(=O)[C@@H](N)Cc1c[nH]c2ccccc12)C(=O)N[C@@H](CCCN=C(N)N)C(N)=O [WWWLRRIR]
2. CC(C)C[C@H](NC(=O)[C@H](CCCCN)NC(=O)CNC(=O)[C@H](CC(C)C)NC(=O)[C@H](CC(C)C)NC(=O)[C@H](CC(C)C)NC(=O)[C@H](CO)NC(=O)[C@H](CC(C)C)NC(=O)[C@H](CC(C)C)NC(=O)[C@H](CC(C)C)NC(=O)[C@H](CO)NC(=O)[C@H](CC(C)C)NC(=O)CN)C(N)=O [GLSLLLSLLLGKL]
3. CC[C@H](C)[C@@H]1NC(=O)CNC(=O)[C@H](CCCN=C(N)N)NC(=O)[C@H](Cc2ccc(O)cc2)NC(=O)[C@@H]2CSSC[C@H](NC1=O)C(=O)N[C@@H](Cc1ccc(O)cc1)C(=O)N[C@@H](CCCN=C(N)N)C(=O)N[C@@H](CCCN=C(N)N)C(=O)N[C@H](C(=O)N[C@@H](CCCN=C(N)N)C(=O)O)CSSC[C@H](NC(=O)[C@H](Cc1c[nH]c3ccccc13)NC(=O)[C@@H](N)CCCCN)C(=O)N[C@@H](Cc1ccccc1)C(=O)N[C@@H](C)C(=O)N[C@@H](C(C)C)C(=O)N2 [KWCFAVCYRGICYRRCR]

1. 25
2. 25
3. 0.0572

* * *

Measured MIC on Escherichia coli follows.

compound | study_target | MIC
CC[C@H](C)[C@H](NC(=O)[C@H](Cc1ccccc1)NC(=O)CN)C(=O)NCC(=O)N[C@@H](CCCCN)C(=O)N[C@@H](CC(C)C)C(=O)N[C@@H](C)C(=O)N[C@@H](CO)C(=O)N[C@@H](CCCCN)C(=O)N[C@H](C(=O)N[C@H](C(=O)N1CCC[C@H]1C(=O)N[C@@H](CO)C(=O)N[C@H](C(=O)N[C@@H](Cc1ccc(O)cc1)C(=O)N[C@@H](CS)C(=O)N[C@@H](CCCCN)C(=O)N[C@H](C(=O)N[C@H](C(=O)NCC(=O)O)[C@@H](C)O)C(C)C)C(C)C)C(C)C)C(C)C [GFIGKLASKVVPSVYCKVTG] | Escherichia coli | 62.3 µM

Please look at the items below and tell me MIC for each one, in order.
1. CC(C)C[C@@H]1NC(=O)CNC(=O)[C@H](CO)NC(=O)[C@H](CC(C)C)NC(=O)CNC(=O)[C@@H](NC(=O)[C@H](CC(C)C)NC(=O)[C@@H](NC(=O)[C@H](CCCCN)NC(=O)[C@H](CCCCN)NC(=O)CNC(=O)[C@@H](NC(=O)CNC(=O)[C@H](CC(C)C)NC(=O)[C@@H](NC(=O)CNC(=O)[C@H](CO)NC(=O)[C@H](CC(C)C)NC(=O)[C@H](CC(C)C)NC(=O)CN)C(C)C)C(C)C)C(C)C)CSSC[C@@H](C(=O)O)NC1=O [GLLSGVLGVGKKVLCGLSGLC]
2. CC(C)C[C@H](NC(=O)[C@H](CCCCN)NC(=O)[C@H](Cc1ccccc1)NC(=O)[C@@H](NC(=O)[C@@H](NC(=O)[C@H](CCCCN)NC(=O)[C@H](CC(C)C)NC(=O)[C@@H](N)Cc1ccccc1)C(C)C)C(C)C)C(=O)N[C@@H](C)C(=O)N[C@@H](CO)C(=O)N[C@@H](CCCCN)C(=O)N[C@H](C(=O)N[C@@H](Cc1ccccc1)C(=O)NCC(=O)N[C@@H](C)C(=O)N[C@H](C(=O)N[C@@H](Cc1ccccc1)C(=O)NCC(=O)N[C@@H](CCCCN)C(=O)N[C@H](C(=O)O)C(C)C)C(C)C)C(C)C [FLKVVFKLASKVFGAVFGKV]

["2.37 µM", "58.6 µM"]

* * *

test system: Candida parapsilosis ATCC 22019
property_name: MIC

Use these answered entries as a reference point.
molecule | MIC
CC[C@H](C)[C@H](NC(=O)[C@H](CC(C)C)NC(=O)[C@H](C)NC(=O)[C@H](CO)NC(=O)[C@H](CCCN=C(N)N)NC(=O)[C@@H](N)CO)C(=O)N[C@H](C(=O)N[C@@H](Cc1cnc[nH]1)C(=O)N[C@@H](CCC(N)=O)C(=O)N[C@@H](CCCN=C(N)N)C(=O)N[C@@H](CC(C)C)C(=O)N[C@@H](Cc1ccccc1)C(N)=O)C(C)C [SRSALIVHQRLF] | ≥ 280 µM
CC[C@H](C)[C@H](N)C(=O)N[C@H](C(=O)N1CCC[C@H]1C(=O)N[C@@H](Cc1ccccc1)C(=O)N[C@@H](CC(C)C)C(=O)N[C@@H](CC(C)C)C(=O)NCC(=O)N[C@@H](CCSC)C(=O)N[C@H](C(=O)N1CCC[C@H]1C(=O)N[C@@H](CCCCN)C(=O)N[C@@H](CC(C)C)C(=O)N[C@H](C(=O)N[C@H]1CSSC[C@@H](C(=O)O)NC(=O)[C@H](CCCCN)NC(=O)[C@H](CCCCN)NC(=O)[C@H]([C@@H](C)O)NC(=O)[C@H]([C@@H](C)CC)NC(=O)[C@H](CC(C)C)NC1=O)C(C)C)C(C)C)C(C)C [IVPFLLGMVPKLVCLITKKC] | 16 µM
CC[C@H](C)[C@H](NC(=O)CNC(=O)[C@H](CO)NC(=O)[C@H](C)NC(=O)[C@@H](N)Cc1ccccc1)C(=O)N[C@@H](C)C(=O)NCC(=O)N[C@@H](CCSC)C(=O)N[C@@H](C)C(=O)NCC(=O)N[C@@H](CCCCN)C(=O)N[C@@H](CC(C)C)C(=O)N[C@@H](Cc1ccccc1)C(N)=O [FASGIAGMAGKLF] | ≥ 200 µM

Next molecule, MIC to be filled in.
In plain terms, CC[C@H](C)[C@H](NC(=O)[C@H](CC(C)C)NC(=O)[C@H](CO)NC(=O)[C@@H](N)CCCN=C(N)N)C(=O)N[C@H](C(=O)N[C@@H](Cc1cnc[nH]1)C(=O)N[C@@H](CCC(N)=O)C(=O)N[C@@H](CCCN=C(N)N)C(=O)N[C@@H](CC(C)C)C(=O)N[C@@H](Cc1ccccc1)C(N)=O)C(C)C [RSLIVHQRLF] has a documented MIC of ≥ 315 µM

* * *

Measured MIC on Escherichia coli KCTC 1682 follows.
One number for each entry, in µM.

Please look at the items below and tell me MIC for each one, in order.
1. CC(C)C[C@H](NC(=O)[C@H](Cc1c[nH]c2ccccc12)NC(=O)[C@H](CCCN=C(N)N)NC(=O)[C@H](CCCCN)NC(=O)[C@H](Cc1c[nH]c2ccccc12)NC(=O)[C@H](CCCN=C(N)N)NC(=O)[C@H](CCC(N)=O)NC(=O)[C@@H](NC(=O)[C@H](Cc1c[nH]c2ccccc12)NC(=O)[C@H](CCCN=C(N)N)NC(=O)[C@H](CCCCN)NC(=O)[C@@H](N)Cc1c[nH]c2ccccc12)C(C)C)C(=O)N[C@@H](CCCN=C(N)N)C(N)=O
2. CC[C@H](C)[C@H](NC(=O)[C@H](CCCCN)NC(=O)[C@H](Cc1c[nH]c2ccccc12)NC(=O)[C@H](Cc1ccccc1)NC(=O)[C@H](CC(C)C)NC(=O)[C@H](CCCCN)NC(=O)[C@H](CCCCN)NC(=O)[C@@H](N)CCCCN)C(=O)N1CCC[C@H]1C(=O)N[C@@H](CCCCN)C(=O)N[C@@H](Cc1ccccc1)C(=O)N[C@@H](CC(C)C)C(=O)N[C@@H](Cc1cnc[nH]1)C(=O)N[C@@H](CC(C)C)C(=O)N[C@@H](C)C(=O)N[C@@H](CCCCN)C(=O)N[C@@H](CCCCN)C(=O)N[C@@H](Cc1ccccc1)C(N)=O
3. CC(C)C[C@H](NC(=O)[C@H](CCCCN)NC(=O)[C@H](CCCCN)NC(=O)[C@H](Cc1c[nH]c2ccccc12)NC(=O)[C@@H](N)CCCCN)C(=O)N[C@@H](CC(C)C)C(=O)N[C@@H](CCCCN)C(=O)N[C@@H](CCCCN)C(=O)N1CCC[C@H]1C(=O)N[C@@H](CC(C)C)C(=O)N[C@@H](CC(C)C)C(=O)N[C@@H](CCCCN)C(=O)N[C@@H](CCCCN)C(N)=O

[4, 2, 12.5]

Hey, just so you know, these numbers are from DBAASP.
